pIC50 by entry:
Biological target: Dual specificity protein phosphatase 26 (Homo sapiens)
Sequence (Q9BV47 whole entry, the tested form may be a part): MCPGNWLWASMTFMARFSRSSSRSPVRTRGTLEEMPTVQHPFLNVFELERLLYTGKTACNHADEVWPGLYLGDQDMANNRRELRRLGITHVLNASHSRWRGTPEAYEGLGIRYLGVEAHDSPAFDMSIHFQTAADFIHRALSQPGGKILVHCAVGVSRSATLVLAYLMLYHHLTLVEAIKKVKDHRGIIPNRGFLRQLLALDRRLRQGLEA
Assay: inhibition of Homo sapiens (human) recombinant DUSP26 catalytic domain (61 to 211 amino acid residues) overexpressed in Escherichia coli BL21 (DE3) assessed as hydrolysis of 3-ortho-methylfluorescein phosphate after 30 min by spectrofluorometric analysis
pIC50 field: float, defined as -log10 of concentration (mol/L).

{"compound": "O=C(O)c1cccc(N2C(=O)/C(=C\\c3ccc(O)c(O)c3)SC2=S)c1", "test target": "Dual specificity protein phosphatase 26 (Homo sapiens)", "pIC50": 4.60}
{"compound": "CN1C(=O)/C(=C/c2ccc(OCc3cccc([N+](=O)[O-])c3)cc2)S/C1=N/c1cccc(C(=O)O)c1", "test target": "Dual specificity protein phosphatase 26 (Homo sapiens)", "pIC50": 4.70}
{"compound": "O=C(O)CCN1C(=O)/C(=C/c2cn(-c3ccccc3)nc2-c2cccc([N+](=O)[O-])c2)SC1=S", "test target": "Dual specificity protein phosphatase 26 (Homo sapiens)", "pIC50": 4.65}

The reported value for CN1C(=O)/C(=C/c2ccc(OCc3ccc(F)cc3)cc2)S/C1=N/c1cccc(C(=O)O)c1 in terms of pIC50 is 4.57

The reported value for CCN1C(=O)/C(=C/c2ccccc2OCc2ccccc2C#N)S/C1=N/c1ccc(C(=O)O)cc1 in terms of pIC50 is 4.38

The reported value for CN1C(=O)/C(=C/c2ccc(OCc3cccc(F)c3)cc2)S/C1=N/c1cccc(C(=O)O)c1 in terms of pIC50 is 4.90

The reported value for O=C1OC(c2ccc(Cl)cc2)=C/C1=C\c1ccc(-c2ccc(Cl)c(C(=O)O)c2)o1 in terms of pIC50 is 5.05

The reported value for C=CCOc1ccc(/C=C2\SC(=S)N(c3cccc(C(=O)O)c3)C2=O)cc1 in terms of pIC50 is 4.52

The reported value for O=C(CN1C(=O)/C(=C\C=C\c2ccccc2)SC1=S)Nc1ccc(O)cc1C(=O)O in terms of pIC50 is 4.58

The reported value for O=C(O)c1ccc(Cl)cc1Nc1nc2ccccc2nc1NS(=O)(=O)c1ccc(Cl)cc1 in terms of pIC50 is 4.77

The reported value for CCc1cc(CC)cc(OCCOc2ccccc2/C=C2/C(=O)NN(c3ccccc3)C2=O)c1 in terms of pIC50 is 4.44
